The values you see were collected from patent US9840481B2.

Target: human α7 nAChR stably expressed in a HEK cell line (with human RIC-3) (Homo sapiens, UniProt P36544)
Construct: PrecisION hnAChR α7/RIC-3
Sequence (P36544 23-502): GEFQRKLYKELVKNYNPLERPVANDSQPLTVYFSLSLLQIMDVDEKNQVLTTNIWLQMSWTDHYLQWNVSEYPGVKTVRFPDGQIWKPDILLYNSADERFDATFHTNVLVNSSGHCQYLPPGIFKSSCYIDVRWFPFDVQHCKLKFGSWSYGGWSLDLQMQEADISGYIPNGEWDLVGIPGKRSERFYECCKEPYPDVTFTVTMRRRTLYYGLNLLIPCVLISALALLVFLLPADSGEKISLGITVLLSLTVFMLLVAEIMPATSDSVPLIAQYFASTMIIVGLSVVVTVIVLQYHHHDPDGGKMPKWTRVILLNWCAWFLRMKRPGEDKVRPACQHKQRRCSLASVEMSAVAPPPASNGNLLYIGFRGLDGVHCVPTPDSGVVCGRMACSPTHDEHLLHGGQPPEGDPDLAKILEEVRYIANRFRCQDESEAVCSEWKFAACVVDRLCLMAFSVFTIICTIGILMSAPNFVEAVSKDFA
Assay: Automated patch-clamp electrophysiology functional assay (Assay A), IonFlux HT, whole-cell population patch
Assay type: cell-based
Conditions: electrophysiology EC50, HEK cells expressing human α7/RIC-3, 40 μM acetylcholine, holding potential −60 mV, room temperature; read-out: α7 nAChR EC50
Property: pEC50; scope: individual molecules
Just so you know, pEC50 here is -log10 of the concentration in molar units; reply with that number alone.

The following molecules have reported results that may help.
NS(=O)(=O)c1ccc([C@@H]2C[C@H]2c2cnc(C3CCCCC3)o2)cc1 [Example 28]: 6.34
CC1(C)[C@@H](c2ccc(S(N)(=O)=O)cc2)[C@@H]1c1nc(C2CC(F)(F)C2)no1 [Example D18]: 7.02

The record that follows has no pEC50 shown yet.
Look at this molecule and give its reported pEC50. NS(=O)(=O)c1ccc([C@@H]2C[C@H]2c2nc(-c3cccc(F)c3)cs2)cc1 [Example 14]
6.70

###

Listing of entries alongside the reported pEC50.
Target: human α7 nAChR stably expressed in a HEK cell line (with human RIC-3) (Homo sapiens, UniProt P36544)
Construct: PrecisION hnAChR α7/RIC-3
Assay: Automated patch-clamp electrophysiology functional assay (Assay A), IonFlux HT, whole-cell population patch
Type: cell-based
Conditions: electrophysiology EC50, HEK cells expressing human α7/RIC-3, 40 μM acetylcholine, holding potential −60 mV, room temperature; read-out: α7 nAChR EC50
Method: The α7 nAChR positive allosteric modulator (PAM) activity of the present compounds may be tested using assays known in the art. […] The compounds were assessed for their ability to modulate the function of the human α7 nAChR stably expressed in a HEK cell line both in the presence, and in the absence of the natural α7 agonist acetylcholine. By performing a series of such measurements at different concentrations, the effective concentration of the α7 nAChR PAMs (EC50) was determined. […]
Scale for pEC50: -log10 of concentration given in mol/L; no unit attached.

Here are 10 molecules together with their reported answers.
CC1(C)[C@@H](c2ccc(S(N)(=O)=O)cc2)[C@@H]1c1noc(-c2c(F)cccc2F)n1: 6.96
CC1(C)C(c2ccc(S(N)(=O)=O)c(F)c2)C1c1nc(-c2ccccc2)no1 (single isomer, unassigned; enantiomer a): 6.07
CC1(C)[C@H](c2ccc(S(N)(=O)=O)cc2)[C@H]1c1nc(-c2c(F)cccc2F)no1: 6.02
CC1(C)[C@H](c2ccc(S(N)(=O)=O)cc2)[C@H]1c1nc(C2CCOC2)no1 (some centres unmarked): 5.24
CC1(C)[C@@H](c2ccc(S(N)(=O)=O)cc2)[C@@H]1c1csc(C2CCCC2)n1: 6.43
NS(=O)(=O)c1ccc([C@@H]2C[C@H]2c2ncc(-c3ccccc3)o2)cc1: 6.30
CC(C)(C)c1noc([C@@H]2[C@@H](c3ccc(S(N)(=O)=O)cc3)C2(F)F)n1: 6.07
CC1(C)[C@H](c2ccc(S(N)(=O)=O)cc2)[C@H]1c1nc(C2CC2)c(C2CC2)o1: 5.62
CC(C)c1noc([C@@H]2C[C@H]2c2ccc(S(N)(=O)=O)cc2)n1: 6.37
CC1C(c2ccc(S(N)(=O)=O)cc2)C1c1nc(-c2ccccc2)no1 (single isomer, unassigned; diastereomer 4) [Example 22]: 6.92

Returns the measured pEC50 for the input molecule. Input: COc1ccc(Cl)cc1-c1noc([C@@H]2C[C@H]2c2ccc(S(N)(=O)=O)cc2)n1
6.11

// returns reported pEC50 for input CC1(C)[C@@H](c2ccc(S(N)(=O)=O)cc2)[C@@H]1c1noc(C2CCc3cc(F)ccc32)n1 (some centres unmarked)
7.02

Which measured pEC50 value corresponds to CC1(C)[C@H](c2ccc(S(N)(=O)=O)cc2)[C@H]1c1nc(C2CCCCC2)no1 ?
6.18

Query (molecule): CC1C(c2ccc(S(N)(=O)=O)cc2)C1c1nc(-c2ccccc2)no1 (single isomer, unassigned) [Example M2] ; field requested: pEC50
5.77

Given the entry Cc1ncccc1-c1noc([C@H]2C[C@@H]2c2ccc(S(N)(=O)=O)cc2)n1 , report its measured pEC50.
5.11

Field request: pEC50 | item: NS(=O)(=O)c1ccc([C@@H]2[C@@H](c3nc(C4CCCC4)no3)C2(F)F)cc1
6.43

Param item = NS(=O)(=O)c1ccc([C@@H]2C[C@H]2c2nc(-c3ccccc3)cs2)cc1 ; retrieve measured pEC50.
6.17
